System: RAW264.7
Test name: Inhibition of PGE2 production in LPS-induced mouse RAW264.7 cells at 10 uM
Format: functional
Readout label: inhibition at 10 µM (%)
State the answer as a number, implicitly in %.

[[record]]
compound = "COC(=O)C(Sc1nc(Cl)nc(Nc2ccc(C(C)C)cc2)n1)c1cccc2ccccc12 (stereo unspecified)"
units_label = "%"
experimental_result = 88.7

[[record]]
compound = "COC(=O)C(Sc1nc(Cl)nc(Nc2ccc(Cc3ccccc3)cc2)n1)c1ccccc1 (stereo unspecified)"
units_label = "%"
experimental_result = 90.8

[[record]]
compound = "CCOC(=O)C(Sc1nc(Cl)nc(Nc2ccc(C3CCCCC3)cc2)n1)c1cccc2ccccc12 (stereo unspecified)"
units_label = "%"
experimental_result = 43.7


Reading of inhibition at 10 µM for COC(=O)C(Sc1nc(Cl)nc(Nc2ccc(-c3ccccc3)cc2)n1)c1ccccc1 (stereo unspecified) with RAW264.7: 82.7

Reading of inhibition at 10 µM for COC(=O)C(Sc1nc(Cl)nc(Nc2ccc(C(C)C)cc2)n1)c1ccccc1 (stereo unspecified) with RAW264.7: 91.8

Reading of inhibition at 10 µM for COC(=O)C(Sc1nc(Cl)nc(Nc2ccc(Oc3ccccc3)cc2)n1)c1ccccc1 (stereo unspecified) with RAW264.7: 85.8

Reading of inhibition at 10 µM for COC(=O)C(Sc1nc(Cl)nc(Nc2ccc(Oc3ccccc3)cc2)n1)c1cccc2ccccc12 (stereo unspecified) with RAW264.7: 72.5

Reading of inhibition at 10 µM for O=C(O)C(Sc1nc(Cl)nc(Nc2ccc(-c3ccccc3)cc2)n1)c1cccc2ccccc12 (stereo unspecified) with RAW264.7: 7.77

Reading of inhibition at 10 µM for COC(=O)C(Sc1nc(C)nc(Nc2ccc(C(C)C)cc2)n1)c1ccccc1 (stereo unspecified) with RAW264.7: 85.7

Reading of inhibition at 10 µM for CCOC(=O)C(Sc1nc(Cl)nc(Nc2ccc(-c3ccccc3)cc2)n1)c1cccc2ccccc12 (stereo unspecified) with RAW264.7: 78.6

Reading of inhibition at 10 µM for CCOC(=O)C(Sc1nc(Cl)nc(Nc2ccc(Cc3ccccc3)cc2)n1)c1cccc2ccccc12 (stereo unspecified) with RAW264.7: 72.6
